Some molecules, each annotated with its measured TGI.
# System: NCI-H226 lung
# assay text: NCI tumour cell line growth inhibition, 48 h
Your answer is read as µM, so omit the unit and give the number.

Sample answers from the record:
                           structure_smiles   study_target  value_observed
0  CCN(CC)c1c(C(=O)/C=C/c2ccc(F)cc2)c(-c2ccccc2)nn(C)c1=O  NCI-H226 lung              34
1   CN(C)CCNc1ccc2nnn3c4ccc(O)cc4c(=O)c1c23  NCI-H226 lung            23.6

Exercise: API: value(readout=TGI, system=NCI-H226 lung) for record C#CCNCCCN1C(=O)c2ccc3c4c(ccc(c24)C1=O)C(=O)N(CCCNCC#C)C3=O
Key: 0.551

Exercise: Missing value: TGI, NCI-H226 lung, entry O=C(Cc1cc(=O)oc2cc(O)ccc12)N/N=C/c1ccc(N(CCCl)CCCl)cc1 . Fill in?
Key: 35
